System: NCI-H460 lung
Experiment: NCI-60 one-dose screen, 48 h
Conditions: 10 µM unless noted
The panel holds about 83,000 compounds, 20% with a hit somewhere; the sample as a whole holds those more often. The source made the active and inactive calls. Rule for the calls: active = growth percent below 10; inactive = the rest.
The reply should name one outcome from Yes (active), No (inactive)

These solved cases illustrate the format of a correct answer.
Assay result, entry CN(C)CC(C(=O)Cc1ccccc1)c1ccccc1 (configuration not stated) — outcome?
No

Next: CN[C@@]1(c2ccccc2Cl)CCCC[C@@H]1NCC1CCCO1 (some centres not stated)
No

Next: C[C@@H]1O[C@@H](O[C@H]2C[C@@H](O)[C@]3(CO)C4C(CC[C@]3(O)C2)[C@@]2(O)CC[C@H](C3=CC(=O)OC3)[C@@]2(C)C[C@H]4O)[C@H](O)[C@H](O)[C@H]1O (some centres not stated)
Yes

Next: O=C(CC1(O)C(=O)Nc2ccc(Br)cc21)c1ccc(C(=O)NCC2CCC3(CC2)OOC2(CCCCC2)OO3)cc1 (configuration not stated)
No

Next: CC1(C)N=C(N)N=C(N)N1c1ccc(CCCCc2ccc(Cl)c(S(=O)(=O)F)c2)c(Cl)c1
No

Further cases:
Assay result, entry CC1=C2[C@@H](CC1)[C@]1(C)O[C@@](C(C)C)(C[C@H]1O)[C@H]2OC(=O)C1CC1c1ccccc1 (some centres not stated) — outcome?
No

Next: O=C(CC1(O)C(=O)Nc2ccccc21)c1ccc(C(=O)NCC2CCC3(CC2)OOC2(CCCCC2)OO3)cc1 (configuration not stated)
No
